Listed next: entries and their corresponding melting point.

Known results for molecules:
smi: COc1ccc(Cc2nnc(SCc3cn(-c4ccc(Cl)cc4)nn3)o2)cc1
melting point: 92 to 94 °C
//
smi: COc1ccc(Cc2nnc(SCc3cn(-c4cccc(Cl)c4)nn3)o2)cc1OC
melting point: 70 to 72 °C
//
smi: COc1ccc(Cc2nnc(SCc3cn(-c4ccc(C)cc4)nn3)o2)cc1
melting point: 104 to 106 °C

Lab note: next molecule to report on.
Per the record, COc1ccc(Cc2nnc(SCc3cn(-c4ccc(OC)cc4)nn3)o2)cc1 has melting point of 90 to 92 °C

---

# assayNotes: MTT cell viability assay, PBMC
# Format: cell-based
# recordedConditions: normal PBMC cells, 30 and 50 µM
valueKind: viability at 24 h

Per the record, COc1ccc(Cc2nnc(SCc3cn(-c4ccc(Cl)c(Cl)c4)nn3)o2)cc1 [Compound 4c] has viability at 24 h of > 80%

---

Listed next: entries and their corresponding melting point.

smi: COc1ccc(-n2cc(CSc3nnc(Cc4ccc(OC)c(OC)c4)o3)nn2)cc1
melting point: 76 to 78 °C
--
smi: COc1ccc(Cc2nnc(SCc3cn(-c4ccc(Br)cc4)nn3)o2)cc1OC
melting point: 98 to 100 °C
--
smi: COc1ccc(Cc2nnc(SCc3cn(-c4ccccc4)nn3)o2)cc1OC
melting point: 46 to 48 °C
--
smi: COc1ccc(Cc2nnc(SCc3cn(-c4ccc(Cl)cc4)nn3)o2)cc1OC
melting point: 72 to 74 °C
--
smi: COc1ccc(Cc2nnc(SCc3cn(-c4ccccc4)nn3)o2)cc1
melting point: 60 to 62 °C

Per the record, COc1ccc(Cc2nnc(SCc3cn(-c4cccc(Cl)c4)nn3)o2)cc1 has melting point of 94 to 96 °C

Per the record, COc1ccc(Cc2nnc(SCc3cn(-c4ccccc4O)nn3)o2)cc1OC has melting point of 122 to 124 °C

Per the record, COc1ccc(Cc2nnc(SCc3cn(-c4ccc(O)cc4)nn3)o2)cc1 has melting point of 94 to 96 °C

Per the record, COc1ccc(Cc2nnc(SCc3cn(-c4ccc(Cl)c(Cl)c4)nn3)o2)cc1OC has melting point of 102 to 104 °C
